System: Puccinia recondite f sp. tritici
Assay: Test B: wheat leaf rust, test suspension sprayed on wheat seedlings, disease rating;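 note: 200 ppm unless marked * meaning 40 ppm or ** meaning 10 ppm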
Format: in vivo
Conditions: 40 ppm test suspension (*)
Marks after values point to notes of the source that are not given here.
readoutLabel: Test B disease control rating

Some solved cases for reference:
CN(N)c1nccc(-c2c(-c3ccc(F)cc3)nn3c2CCCC3)n1 [compound 70]: 0* %
CCCC(CO)Nc1nccc(-c2c(-c3ccc(F)cc3)nn3c2CCCC3)n1 (centres unmarked) [compound 73]: 85* %
CC(C)N(O)c1nccc(-c2c(-c3ccc(F)cc3)nn3c2CS(=O)(=O)CC3)n1 [compound 115]: 63* %
C=CCN1CNCc2c(-c3ccnc(NC4CC4)n3)c(-c3ccc(F)cc3)nn21 [Compound 137]: 0* %
Fc1ccc(-c2nn3c(c2-c2ccnc(NOCC4CCC4)n2)CCCC3)cc1 [compound 75]: 0* %

Please fill in: Test B disease control rating reported for C#CCNc1nccc(-c2c(-c3ccc(F)cc3)nn3c2CCCC3)n1 [compound 58] = 0* %

Entry CC(CN1C(=O)c2ccccc2C1=O)Nc1nccc(-c2c(-c3ccc(F)cc3)nn3c2CCCC3)n1 (centres unmarked) [compound 71] ; Test B disease control rating = 0* %

Test B disease control rating in this record for CC(C)Nc1nccc(-c2c(-c3ccc(F)cc3)nn3c2CCCN3)n1 [Compound 136] : 92* %

====

Test system: Alternaria solani
Assay: Test G: tomato early blight, test suspension sprayed on seedlings, disease rating;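 note: 200 ppm unless marked * meaning 40 ppm or ** meaning 10 ppm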
Type: in vivo
Settings: 40 ppm test suspension (*)
Marks after values point to notes of the source that are not given here.
# Test G disease control rating per entry

CC(C)Nc1nccc(-c2c(-c3ccc(F)cc3)nn3c2COCC3)n1.Cl: 99* %
CC(C)C(CO)Nc1nccc(-c2c(-c3ccc(F)cc3)nn3c2CCCC3)n1 (centres unmarked): 0* %

// sample CCCC(CO)Nc1nccc(-c2c(-c3ccc(F)cc3)nn3c2CCCC3)n1 (centres unmarked) , its Test G disease control rating was 0* %

Entry `Fc1ccc(-c2nn3c(c2-c2ccnc(NC4CCOCC4)n2)COCC3)cc1` — recorded Test G disease control rating = 95* %

Notebook: `C=CCN1CNCc2c(-c3ccnc(NC4CC4)n3)c(-c3ccc(F)cc3)nn21` , Test G disease control rating read as 99* %

Summary for this molecule, `CC(=O)N1CCn2nc(-c3ccc(F)cc3)c(-c3ccnc(NC(C)C)n3)c2C1` : Test G disease control rating is 58* %

Value of measured Test G disease control rating for the entry `CN(N)c1nccc(-c2c(-c3ccc(F)cc3)nn3c2CCCC3)n1` : 46* %

Documented Test G disease control rating of CC(CN1C(=O)c2ccccc2C1=O)Nc1nccc(-c2c(-c3ccc(F)cc3)nn3c2CCCC3)n1 (centres unmarked) : 0* %

Record `CC(=O)N1CCCc2c(-c3ccnc(NC4CCOCC4)n3)c(-c3ccc(F)cc3)nn21` . Reported Test G disease control rating: 99* %

Input `CC(C)Nc1nccc(-c2c(-c3ccc(F)cc3)nn3c2CCCN3)n1` . Output Test G disease control rating: 99* %

# Test G disease control rating (molecule: `Fc1ccc(-c2nn3c(c2-c2ccnc(NOCC4CCC4)n2)CCCC3)cc1` ) is 0* %

Test G disease control rating for `Fc1ccc(-c2nn3c(c2-c2ccnc(NCc4ccco4)n2)CCCC3)cc1` is 0* %

The reported Test G disease control rating of the molecule CC(CO)Nc1nccc(-c2c(-c3ccc(F)cc3)nn3c2CCCC3)n1 (centres unmarked) was 98* %

What the record says about `Fc1ccc(-c2nn3c(c2-c2ccnc(NCC4CCOCC4)n2)CCCC3)cc1` : Test G disease control rating is 68* %
